Molecular target: T1, human CD3e/g antigen (ACRO, catalog number CDG-H52W5) (human, UniProt P07766 23-126; P09693 23-116)
T1 construct: Bought reagent used as the Biacore analyte; also called hCD3e/g
Test: SPR (Biacore 8K), antibody captured via anti-human Fc
We begin with a simple list: items and their reported kon.

[
  {
    "binder": "hAb007-21 (antibody, V domains shown, Humanized; constant regions not specified) VH: QVQLVQSGAEVKKPGASVKVSCKASGSTFTDNYIHWVRQAPGQRLEWIGWIYPGSVNIKYNEKFKDRVTITADTSASTAYMELSSLRSEDTAVYYCARDISRYYFDYWGQGTTVTVSS VL: DIVMTQSPDSLAVSLGERATINCKSSQSLLNSRTRKNYLAWYQQKPGQPPKLLIYWASTRESGVPDRFSGSGSGTDFTLTISSLQAEDVAVYYCKQSFILRTFGGGTKLEIK",
    "kon": "468000 M⁻¹ s⁻¹"
  },
  {
    "binder": "hAb007-22 (antibody, V domains shown, Humanized; constant regions not specified) VH: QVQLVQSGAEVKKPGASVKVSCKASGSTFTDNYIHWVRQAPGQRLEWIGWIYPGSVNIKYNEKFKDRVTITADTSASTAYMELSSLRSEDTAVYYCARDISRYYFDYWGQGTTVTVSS VL: DIVMTQSPDSLAVSLGERATINCKSSQSLLNSRTRKNYLAWYQQKPGQPPKLLIYWASTRESGVPDRFTGSGSGTDFTLTISSLQAEDVAVYYCKQSFILRTFGGGTKLEIK",
    "kon": "446000 M⁻¹ s⁻¹"
  },
  {
    "binder": "hAb001-30 (antibody, V domains shown, Humanized; constant regions not specified) VH: QVQLVQSGAEVKKPGASVKVSCKASGYSFTNYYMHWVKQAPGQRLEWIGWTYPGNNNIKYNEKFKGRATITADTSASTAYMELSSLRSEDTAVYYCARDGYGYYFFDYWGQGTLVTVSS VL: DIVMTQSPDSLAVSLGERATINCKSSQSLLNNRTRKNYLAWYQQKPGQPPKLLIYWASTRESGVPDRFTGSGSGTDFTLTISSLQAEDVAVYYCKQSYTLRTFGGGTKLEIK",
    "kon": "324000 M⁻¹ s⁻¹"
  }
]
